- assay-system: T1, CD70 on cells (CHO-CD70, JVM-3, U266, Raji, THP-1, T cells) (human, UniProt P32970 1-193)
- T1 construct: whole, on cells; also called cell-surface CD70
- T1 sequence (looked up): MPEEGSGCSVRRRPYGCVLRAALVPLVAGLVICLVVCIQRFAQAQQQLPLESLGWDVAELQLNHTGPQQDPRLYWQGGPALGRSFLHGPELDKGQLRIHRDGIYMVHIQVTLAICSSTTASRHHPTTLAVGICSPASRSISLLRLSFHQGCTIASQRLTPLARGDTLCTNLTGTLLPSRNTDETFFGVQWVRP
- protocol: 1.25 µg/mL scFv on U266 cells
Measured cell binding values are reported for all entries that follow.
Answer as a number with no unit attached.

14-TC6-I-F03 (scFv, His-tagged) scFv: QVQLVQSGAEVKKPGASVKVSCKASGYTFTGYYMNWVRQAPGQGLEWMAWINPNTGDTNYAQKFQGRVTMTRDTSINTAYIELSRLTSDDTAVYYCARVGDYYDRSGYYRHDAFDIWGQGTMVTVSSGGSGGSGGSGGSSSELTQDPAVSVALGQTVRITCQGDSLRSYYASWYQQKPGQAPVLVIYGKNNRPSGIPDRFSGSNSGNTATLTISGTQAMDEADYYCQAWDSSTVFGGGTKVTVL	1430
62-TC7-V-D08 (scFv, His-tagged) scFv: QVQLQQWGAGLLKPSETLSLTCAVYGGSFSGYYWSWIRQPPGKGLEWIGEINHSGSTNYNPSLKSRVTISVDTSKNQFSLKLSSVTAADTAVYYCARVARGKGAFDIWGQGTMVTVSSGGSGGSGGSGGSQSALTQPASVSGSPGQSITISCTGTSSDVGGYNYVSWYQQHPGKAPKLLIYEVSSRPSGVSNRFSGSKSGNTASLTISGLQAEDEADYYCNSYTNSGSWVFGGGTKVTVL	35300
55-TC4-IX-G04 (scFv, His-tagged) scFv: QVQLLESGGGVVQPGRSLRLSCAASGFTFSSYAMHWVRQAPGKGLEWVAVISYDGSNKYYADSVKGRFTISRDNSKNTLYLQMNSLRAEDTAVYYCARGLGFGSGWYEYVDAFDIWGQGTMVTVSSGGSGGSGGSGGSQSVLTQPASVSGSPGQSITISCTGTSSDVGSYNLVSWYQQHPGKAPKLMIYEVSKRPSGVSNRFSGSKSGNTASLTISGLQAEDEADYYCSSYRSNNTPWVFGGGTKLTVL	2700

As a next step, examine the binder that follows.
What value of cell binding has been reported for the following binder? 46-TC7-VII-E11 (scFv, His-tagged) scFv: QVQLVQSGGGVVQPGRSLRLSCAASGFTFSSYAMHWVRQAPGKGLEWVAVISYDGSNKYYADSVKGRFTISRDNSKNTLYLQMNSLRAEDTAVYYCARDSSGYYYGSDAFDIWGQGTMVTVSSGGSGGSGGSGGSSYELTQPPSVSVALGQTVRITCQGDSLRSYYASWYQQKPGQAPVLVIYGKNNRPSGIPDRFSGSSSGNTASLTITGAQAEDEADYYCNSRDSSGNPWVFGGGTKVTVL
2290
